Where do these numbers come from? They come from the supplement of paper PMC8882468.

- Tested on: HCI-002 (organoid from a triple-negative breast cancer xenograft)
- PROTOCOL NOTES: CTG-3D luminescence at 96 h relative to day-0 seeding control (ratio to day 0); higher = more growth / less cytotoxicity; PDxO 3D drug screen, 96 h, CTG-3D normalised to day-0 seeding control.
- CONDITION SET: 1 µM; days in culture: 62
Label Not satisfied if CTG-3D luminescence at 96 h falls below 1; label Satisfied in every other case.

Sample answers from the record:
COMPOUND	GROUP
CC[C@H](NC(=O)[C@H](C)NC)C(=O)N1C[C@@H](O)C[C@H]1Cc1c(-c2[nH]c3cc(F)ccc3c2C[C@@H]2C[C@H](O)CN2C(=O)[C@H](CC)NC(=O)[C@H](C)NC)[nH]c2cc(F)ccc12 [birinapant]	Satisfied
Nc1ccn([C@@H]2O[C@H](CO)[C@@H](O)C2(F)F)c(=O)n1 [gemcitabine]	Not satisfied
Cc1nc(-c2cn3c(n2)-c2ccc(-c4cnn(C(C)(C)C(N)=O)c4)cc2OCC3)n(C(C)C)n1 [taselisib]	Satisfied
C[C@@H]1COCCN1c1cc(C2([S@](C)(=N)=O)CC2)nc(-c2cc[nH]c3nccc2-3)n1 [ceralasertib]	Satisfied
Cc1cc(Nc2ncnc3ccc(NC4=NC(C)(C)CO4)cc23)ccc1Oc1ccn2ncnc2c1 [tucatinib]	Satisfied
CNC(=O)c1cccc(-c2ccc3c(N4CCOC[C@@H]4C)nc(N4CCOC[C@@H]4C)nc3n2)c1 [vistusertib]	Satisfied

Turning now to a further record.
Query block: # check: CTG-3D luminescence at 96 h of CCc1c2c(nc3ccc(O)cc13)-c1cc3c(c(=O)n1C2)COC(=O)[C@]3(O)CC [SN-38] is greater than or equal to 1
Result block: Not satisfied
